# measured-on: proliferating cell nuclear antigen (PCNA) (UniProt P12004 1-261)
# Sequence (P12004 whole entry): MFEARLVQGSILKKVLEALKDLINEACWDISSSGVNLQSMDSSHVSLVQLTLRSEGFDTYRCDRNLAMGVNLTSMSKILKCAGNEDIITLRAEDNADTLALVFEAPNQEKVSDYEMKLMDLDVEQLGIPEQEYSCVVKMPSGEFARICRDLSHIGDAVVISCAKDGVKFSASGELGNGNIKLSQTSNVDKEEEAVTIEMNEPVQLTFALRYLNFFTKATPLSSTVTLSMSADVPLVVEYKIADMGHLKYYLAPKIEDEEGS
# protocol-description: ITC
# maps each entry to its stoichiometry N

| binder | stoichiometry N |
| --- | --- |
| Ac-RRRRQTSMTDFYHSRRR-NH2 [p21_(All–R) peptide] | 0.61 |
| Ac-KRKKQTSMTDFYHSRKK-NH2 [p21_(SWAP) peptide] | 0.79 |
| Ac-KKKKQTSMTDFYHSKKK-NH2 [p21_(All–K) peptide] | 0.8 |
| Ac-RKRRQTSMTDFYHSKRR-NH2 [p21_(140–156) peptide (wild-type p21 PIP-degron with flanking regions)] | 0.8 |
